Test system: panel of cancer cell lines
experiment: Cell viability (CellTiter-Glo) dose-response across cancer cell line panel;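 further: after 72 h compound incubation with CellTiter-Glo ATP readout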
Format: cell-based, human
condition description: Homo sapiens, T47D, T-47D
readout type: EC50 (nM)
Give just the numeric value; nM need not be written.

COCc1ccccc1NCc1ccc([C@H]2[C@@H](O)CCCc3cncn32)c(-c2ccccc2Cl)c1: 1030
CC(C)C[C@H](NC(=O)[C@H](Cc1ccccc1)NC(=O)c1cnccn1)B(O)O: 10.4

Now consider a different compound.
EC50 lookup needed for `NS(=O)(=O)OC[C@@H]1C[C@@H](n2ccc3c(N[C@H]4CCc5ccccc54)ncnc32)C[C@@H]1O` , thanks. 315

----------
System: panel of cancer cell lines
experiment: Cell viability (CellTiter-Glo) dose-response across cancer cell line panel;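 further: after 72 h compound incubation with CellTiter-Glo ATP readout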
Assay type: cell-based, human
condition description: Homo sapiens, MM473, MM473
Recorded pEC50 by entry
As a rule, pEC50 stands for the negative log10 of the concentration, concentration in M.

COCc1ccccc1NCc1ccc([C@H]2[C@@H](O)CCCc3cncn32)c(-c2ccccc2Cl)c1 [CSN5i-2]: 5.65

Now consider a different molecule.
pEC50 lookup needed for NS(=O)(=O)OC[C@@H]1C[C@@H](n2ccc3c(N[C@H]4CCc5ccccc54)ncnc32)C[C@@H]1O [MLN4924] , thanks. 6.23

----------
System: panel of cancer cell lines
experiment: Cell viability (CellTiter-Glo) dose-response across cancer cell line panel;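 further: after 72 h compound incubation with CellTiter-Glo ATP readout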
Type: cell-based, human
condition description: Homo sapiens, SNU-61 cells
pEC50: −log10 of the molar value.
readout type: pEC50

pEC50 lookup needed for `COCc1ccccc1NCc1ccc([C@@H]2[C@H](O)CCCc3cncn32)c(-c2ccccc2Cl)c1` , thanks. < 4.52

----------
Test system: panel of cancer cell lines
experiment: Cell viability (CellTiter-Glo) dose-response across cancer cell line panel;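 further: after 72 h compound incubation with CellTiter-Glo ATP readout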
Type: cell-based, human
condition description: Homo sapiens, IGR-37, IGR-37 cells
readout type: EC50 (µM)
Give just the numeric value; µM need not be written.

Lookup: EC50 / panel of cancer cell lines / `COCc1ccccc1NCc1ccc([C@@H]2[C@H](O)CCCc3cncn32)c(-c2ccccc2Cl)c1` 17.6

----------
Test system: panel of cancer cell lines
experiment: Cell viability (CellTiter-Glo) dose-response across cancer cell line panel;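 further: after 72 h compound incubation with CellTiter-Glo ATP readout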
Format: cell-based, human
condition description: Homo sapiens, SNU-475, SNU-475 cells
readout type: EC50

EC50 lookup needed for `COCc1ccccc1NCc1ccc([C@@H]2[C@H](O)CCCc3cncn32)c(-c2ccccc2Cl)c1` , thanks. > 30 µM

----------
Test system: panel of cancer cell lines
experiment: Cell viability (CellTiter-Glo) dose-response across cancer cell line panel;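 further: after 72 h compound incubation with CellTiter-Glo ATP readout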
Format: cell-based, human
condition description: Homo sapiens, Sq-1 cells
readout type: pEC50
As a rule, pEC50 stands for the negative log10 of the concentration, concentration in M.

pEC50 lookup needed for `COCc1ccccc1NCc1ccc([C@@H]2[C@H](O)CCCc3cncn32)c(-c2ccccc2Cl)c1` , thanks. 4.93

----------
Test system: panel of cancer cell lines
experiment: Cell viability (CellTiter-Glo) dose-response across cancer cell line panel;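 further: after 72 h compound incubation with CellTiter-Glo ATP readout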
Type: cell-based, human
condition description: Homo sapiens, KMRC-20 cells
readout type: pEC50
As a rule, pEC50 stands for the negative log10 of the concentration, concentration in M.

pEC50 lookup needed for `COCc1ccccc1NCc1ccc([C@@H]2[C@H](O)CCCc3cncn32)c(-c2ccccc2Cl)c1` , thanks. 4.73

----------
Tested on: panel of cancer cell lines
experiment: Cell viability (CellTiter-Glo) dose-response across cancer cell line panel;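 further: after 72 h compound incubation with CellTiter-Glo ATP readout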
Format: cell-based, human
condition description: Homo sapiens, 769-P
Recorded pEC50 by entry
As a rule, pEC50 stands for the negative log10 of the concentration, concentration in M.

COCc1ccccc1NCc1ccc([C@H]2[C@@H](O)CCCc3cncn32)c(-c2ccccc2Cl)c1 [CSN5i-2]: 4.86

Lookup: pEC50 / panel of cancer cell lines / CC(C)C[C@H](NC(=O)[C@H](Cc1ccccc1)NC(=O)c1cnccn1)B(O)O [Bortezomib] 8.05

Lookup: pEC50 / panel of cancer cell lines / NS(=O)(=O)OC[C@@H]1C[C@@H](n2ccc3c(N[C@H]4CCc5ccccc54)ncnc32)C[C@@H]1O [MLN4924] 6.70

----------
Tested on: panel of cancer cell lines
experiment: Cell viability (CellTiter-Glo) dose-response across cancer cell line panel;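 further: after 72 h compound incubation with CellTiter-Glo ATP readout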
Format: cell-based, human
condition description: Homo sapiens, MM127 cells
Method: Next, we explored the effect of CSN5 inhibition on the viability of cancer cells. […] A standardized CellTiter-Glo Assay (Promega #G7570) based on the quantification of ATP was applied according to the manufacturer's protocol to measure the amount of viable cells in culture. […] EC50 values were calculated from the plot of percentage of inhibition versus inhibitor concentration using the nonlinear regression analysis software Origin 7.5SR6 (OriginLab Corp.).
readout type: pEC50
As a rule, pEC50 stands for the negative log10 of the concentration, concentration in M.

pEC50 lookup needed for `COCc1ccccc1NCc1ccc([C@@H]2[C@H](O)CCCc3cncn32)c(-c2ccccc2Cl)c1` , thanks. 5.19

----------
System: panel of cancer cell lines
experiment: Cell viability (CellTiter-Glo) dose-response across cancer cell line panel;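 further: after 72 h compound incubation with CellTiter-Glo ATP readout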
Type: cell-based, human
condition description: Homo sapiens, BT-549, BT-549 cells
readout type: EC50 (µM)
Give just the numeric value; µM need not be written.

EC50 lookup needed for COCc1ccccc1NCc1ccc([C@@H]2[C@H](O)CCCc3cncn32)c(-c2ccccc2Cl)c1 [CSN5i-2e] , thanks. 19.4

----------
System: panel of cancer cell lines
experiment: Cell viability (CellTiter-Glo) dose-response across cancer cell line panel;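 further: after 72 h compound incubation with CellTiter-Glo ATP readout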
Format: cell-based, human
condition description: Homo sapiens, SNU-410
readout type: pEC50
As a rule, pEC50 stands for the negative log10 of the concentration, concentration in M.

COCc1ccccc1NCc1ccc([C@H]2[C@@H](O)CCCc3cncn32)c(-c2ccccc2Cl)c1 [CSN5i-2]: 4.68

Now consider a different compound.
pEC50 lookup needed for NS(=O)(=O)OC[C@@H]1C[C@@H](n2ccc3c(N[C@H]4CCc5ccccc54)ncnc32)C[C@@H]1O [MLN4924] , thanks. 6.46

----------
System: panel of cancer cell lines
experiment: Cell viability (CellTiter-Glo) dose-response across cancer cell line panel;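 further: after 72 h compound incubation with CellTiter-Glo ATP readout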
Assay type: cell-based, human
condition description: Homo sapiens, DU-4475, DU4475 cells
readout type: pEC50
As a rule, pEC50 stands for the negative log10 of the concentration, concentration in M.

pEC50 lookup needed for COCc1ccccc1NCc1ccc([C@@H]2[C@H](O)CCCc3cncn32)c(-c2ccccc2Cl)c1 [CSN5i-2e] , thanks. 4.83

----------
System: panel of cancer cell lines
experiment: Cell viability (CellTiter-Glo) dose-response across cancer cell line panel;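 further: after 72 h compound incubation with CellTiter-Glo ATP readout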
Type: cell-based, human
condition description: Homo sapiens, Fu97, FU97 cells
readout type: pEC50
As a rule, pEC50 stands for the negative log10 of the concentration, concentration in M.

pEC50 lookup needed for COCc1ccccc1NCc1ccc([C@@H]2[C@H](O)CCCc3cncn32)c(-c2ccccc2Cl)c1 [CSN5i-2e] , thanks. 5.07

----------
Recorded pEC50 by entry
System: panel of cancer cell lines
experiment: Cell viability (CellTiter-Glo) dose-response across cancer cell line panel;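 further: after 72 h compound incubation with CellTiter-Glo ATP readout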
Assay type: cell-based, human
condition description: Homo sapiens, OUMS-23, OUMS-23
As a rule, pEC50 stands for the negative log10 of the concentration, concentration in M.

The examples below pair each entry with its known result.
CC(C)C[C@H](NC(=O)[C@H](Cc1ccccc1)NC(=O)c1cnccn1)B(O)O: 7.85
COCc1ccccc1NCc1ccc([C@H]2[C@@H](O)CCCc3cncn32)c(-c2ccccc2Cl)c1: 6.13

pEC50 lookup needed for `NS(=O)(=O)OC[C@@H]1C[C@@H](n2ccc3c(N[C@H]4CCc5ccccc54)ncnc32)C[C@@H]1O` , thanks. 6.01

----------
System: panel of cancer cell lines
experiment: Cell viability (CellTiter-Glo) dose-response across cancer cell line panel;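 further: after 72 h compound incubation with CellTiter-Glo ATP readout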
Type: cell-based, human
condition description: Homo sapiens, NCI-H1092, NCI-H1092
readout type: EC50

EC50 lookup needed for CC(C)C[C@H](NC(=O)[C@H](Cc1ccccc1)NC(=O)c1cnccn1)B(O)O [Bortezomib] , thanks. 19 nM

----------
Tested on: panel of cancer cell lines
experiment: Cell viability (CellTiter-Glo) dose-response across cancer cell line panel;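 further: after 72 h compound incubation with CellTiter-Glo ATP readout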
Format: cell-based, human
condition description: Homo sapiens, MM485
Recorded EC50 by entry
Give just the numeric value; µM need not be written.

COCc1ccccc1NCc1ccc([C@H]2[C@@H](O)CCCc3cncn32)c(-c2ccccc2Cl)c1: 0.521

Now consider a different molecule.
EC50 lookup needed for `NS(=O)(=O)OC[C@@H]1C[C@@H](n2ccc3c(N[C@H]4CCc5ccccc54)ncnc32)C[C@@H]1O` , thanks. 0.82

----------
Recorded EC50 by entry
System: panel of cancer cell lines
experiment: Cell viability (CellTiter-Glo) dose-response across cancer cell line panel;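 further: after 72 h compound incubation with CellTiter-Glo ATP readout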
Type: cell-based, human
condition description: Homo sapiens, NCI-H23, NCI-H23
Give just the numeric value; nM need not be written.

COCc1ccccc1NCc1ccc([C@H]2[C@@H](O)CCCc3cncn32)c(-c2ccccc2Cl)c1: 347

Now consider a different molecule.
EC50 lookup needed for `NS(=O)(=O)OC[C@@H]1C[C@@H](n2ccc3c(N[C@H]4CCc5ccccc54)ncnc32)C[C@@H]1O` , thanks. 532
